Target entity: EP2 (Homo sapiens)
Sequence (P43116 whole entry): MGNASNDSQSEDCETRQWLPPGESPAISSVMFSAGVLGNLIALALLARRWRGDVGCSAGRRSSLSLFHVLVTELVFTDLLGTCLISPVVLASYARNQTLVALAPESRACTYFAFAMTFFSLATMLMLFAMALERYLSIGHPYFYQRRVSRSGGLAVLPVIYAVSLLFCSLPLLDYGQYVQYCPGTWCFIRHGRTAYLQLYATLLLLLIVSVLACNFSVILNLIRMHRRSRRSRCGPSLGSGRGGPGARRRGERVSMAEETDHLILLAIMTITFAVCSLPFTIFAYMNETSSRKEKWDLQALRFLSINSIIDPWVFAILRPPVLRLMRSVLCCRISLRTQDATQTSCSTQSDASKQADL
Assay procedure: EP2 cAMP
Format: cell-based
Property label: EC50 (nM)

// known answers, use as guide
                               smiles_entry  reported_result
0  CCc1cccc(C#C[C@@H]2[C@@H](CCCc3ccc(C(=O)O)s3)[C@H](Cl)C[C@H]2O)c1             0.08
1  C/C=C/c1cc(Cl)cc(/C=C/[C@@H]2[C@@H](CCCc3ccc(C(=O)O)s3)[C@H](Cl)C[C@H]2O)c1              0.1
2  C/C=C/c1cc(Cl)cc(/C=C\[C@@H]2[C@@H](CCCc3ccc(C(=O)O)s3)[C@H](Cl)C[C@H]2O)c1               12

A. Cc1cccc(/C=C/[C@@H]2[C@@H](CCCc3ccc(C(=O)O)s3)[C@H](Cl)C[C@H]2O)c1
B. O=C(O)c1ccc(CCC[C@@H]2[C@@H](/C=C\c3cc(F)cc(F)c3)[C@H](O)C[C@H]2Cl)s1
Between A and B , which one shows the smaller EC50 number? Record your answer as the label of the chosen record.
A
(A: 0.1 nM, B: 207 nM)

Data origin: patent US9765065B2
